src = the supplement of paper PMC10883282

Tested on: RD
Experiment: relative viability vs DMSO control (72 h) (fraction); higher = more viable cells
Conditions: 10 µM
just bin them by relative viability: one (below 0.1), two (0.1 to below 0.6), three (0.6 or more)

These solved cases illustrate the format of a correct answer.
1. Cc1nc(NC(=O)N2CCC[C@H]2C(N)=O)sc1-c1ccnc(C(C)(C)C(F)(F)F)c1; two
2. O=C(Cc1ccc(-c2ccc(OCCN3CCOCC3)cc2)cn1)NCc1ccccc1; two
3. CC(C)(C)c1cc(NC(=O)Nc2ccc(-c3cn4c(n3)sc3cc(OCCN5CCOCC5)ccc34)cc2)no1; three
4. Nc1cc(C(F)(F)F)c(-c2cc(N3CCOCC3)nc(N3CCOCC3)n2)cn1; two
5. C=CC(=O)N1CCC[C@@H](n2nc(-c3ccc(Oc4ccccc4)cc3)c3c(N)ncnc32)C1; three

query: Which class does COc1c(OCCCN2CCOCC2)ccc2c1N=C(NC(=O)c1cnc(N)nc1)N1CCN=C21 fall in?
result: two

query: Please let me know in which category the item Cc1cnc(Nc2ccc(OCCN3CCCC3)cc2)nc1Nc1cccc(S(=O)(=O)NC(C)(C)C)c1 belongs.
result: one

query: Class for CC(C)N1CCN(Cc2cnc(-c3cc(-c4cccc5[nH]ccc45)cc4[nH]ncc34)o2)CC1 ?
result: two

query: Each compound maps to one class by relative viability. Which class for COc1cc2/c(=N/c3ccc(Br)cc3F)nc[nH]c2cc1OCC1CCN(C)CC1 ?
result: one

query: Each compound maps to one class by relative viability. Which class for CCc1cc2c(cc1N1CCC(N3CCOCC3)CC1)C(C)(C)c1[nH]c3cc(C#N)ccc3c1C2=O ?
result: three

====

Entries annotated with measured relative viability
Test system: KHOS-240S
Assay: relative viability vs DMSO control (72 h) (fraction); higher = more viable cells
Details: 0.00051 µM
// return just the number, without any unit appended

Examples with answers:
1) CC(C)(C)c1cc(NC(=O)Nc2ccc(-c3cn4c(n3)sc3cc(OCCN5CCOCC5)ccc34)cc2)no1; 1.05
2) N#CC[C@H](C1CCCC1)n1cc(-c2ncnc3[nH]ccc23)cn1; 0.984

query: Return reported relative viability; argument: C=CC(=O)N1CCC[C@@H](n2nc(-c3ccc(Oc4ccccc4)cc3)c3c(N)ncnc32)C1
result: 1.08

query: Report relative viability for C[C@@H]1COCCN1c1cc(-c2ccnn2C)c2ccnc(-c3ccn[nH]3)c2n1 please.
result: 1.06

query: Bench note: what relative viability did C[C@@H]1CCN(C(=O)CC#N)C[C@@H]1N(C)c1ncnc2[nH]ccc12 show?
result: 1.05

====

molecules and their reported relative viability
System: VA-ES-BJ
Assay: relative viability vs DMSO control (72 h) (fraction); higher = more viable cells
Conditions: 0.00017 µM
The response must contain the number and no unit.

1) C=CC(=O)Nc1cccc(Oc2nc(Nc3ccc(N4CCN(C)CC4)cc3)nc3ccsc23)c1 [Olmutinib]; 1.01

query: Fill blank: measured relative viability of the molecule C[C@@H](c1ccc2nccn2c1)n1nnc2ncc(-c3cnn(C)c3)nc21 [Volitinib] is ____.
result: 1.07

query: Need relative viability, item CO[C@H]1C[C@@H]2CC[C@@H](C)[C@@](O)(O2)C(=O)C(=O)N2CCCC[C@H]2C(=O)O[C@H]([C@H](C)C[C@@H]2CC[C@@H](OP(C)(C)=O)[C@H](OC)C2)CC(=O)[C@H](C)/C=C(\C)[C@@H](O)[C@@H](OC)C(=O)[C@H](C)C[C@H](C)/C=C/C=C/C=C/1C [Ridaforolimus]
result: 0.97

query: Record request: relative viability value, item CN1CCN(c2ccc3nc(-c4c(N)c5c(F)cccc5[nH]c4=O)[nH]c3c2)CC1 [Dovitinib]
result: 1.06

query: Sample Cc1nc(NC(=O)N2CCC[C@H]2C(N)=O)sc1-c1ccnc(C(C)(C)C(F)(F)F)c1 [Alpelisib] — what was its relative viability?
result: 1.06

query: Request the reported relative viability associated with CC(C)N1CCN(Cc2cnc(-c3cc(-c4cccc5[nH]ccc45)cc4[nH]ncc34)o2)CC1 [Nemiralisib]
result: 0.985

query: Quick one: relative viability of CC(C)(C)c1cc(NC(=O)Nc2ccc(-c3cn4c(n3)sc3cc(OCCN5CCOCC5)ccc34)cc2)no1 [Quizartinib] ?
result: 1.06

====

The following compounds are shown together with reported relative viability values.
System: SYO-1
Test: relative viability vs DMSO control (72 h) (fraction); higher = more viable cells
Settings: 0.00457 µM
// no unit, no text: just the number

1) Cc1nc(-c2cn3c(n2)-c2ccc(-c4cnn(C(C)(C)C(N)=O)c4)cc2OCC3)n(C(C)C)n1; 0.895
2) Cc1nc(NC(=O)N2CCC[C@H]2C(N)=O)sc1-c1ccnc(C(C)(C)C(F)(F)F)c1; 0.919
3) O=C(Nc1cnn2ccc(N3CCC[C@@H]3c3cc(F)ccc3F)nc12)N1CC[C@H](O)C1; 0.973
4) O=C(Cc1ccc(-c2ccc(OCCN3CCOCC3)cc2)cn1)NCc1ccccc1; 0.952
5) CCCS(=O)(=O)Nc1ccc(F)c(C(=O)c2c[nH]c3ncc(-c4ccc(Cl)cc4)cc23)c1F; 0.966
6) C=CC(=O)N1CCC([C@@H]2CCNc3c(C(N)=O)c(-c4ccc(Oc5ccccc5)cc4)nn32)CC1; 0.979
7) Cc1cc(Nc2ncnc3ccc(NC4=NC(C)(C)CO4)cc23)ccc1Oc1ccn2ncnc2c1; 1.01
8) CCc1cc2c(cc1N1CCC(N3CCOCC3)CC1)C(C)(C)c1[nH]c3cc(C#N)ccc3c1C2=O; 0.975

query: Returns the measured relative viability for the input compound. Input: C=CC(=O)Nc1cccc(Oc2nc(Nc3ccc(N4CCN(C)CC4)cc3)nc3ccsc23)c1
result: 0.952

query: // relative viability lookup, key: Cc1cnc(Nc2ccc(OCCN3CCCC3)cc2)nc1Nc1cccc(S(=O)(=O)NC(C)(C)C)c1
result: 0.933

query: If you can, please state the reported relative viability value of Nc1cc(C(F)(F)F)c(-c2cc(N3CCOCC3)nc(N3CCOCC3)n2)cn1 .
result: 0.931

====

Reported relative viability is given for each of the following molecules.
Test system: SK-LMS-1
Experiment: relative viability vs DMSO control (72 h) (fraction); higher = more viable cells
Conditions: 0.1235 µM
Where a name gives a salt, the structure may show the parent alone.

Solved cases (5 shown):
1) Cc1cnc(Nc2ccc(OCCN3CCCC3)cc2)nc1Nc1cccc(S(=O)(=O)NC(C)(C)C)c1; 0.99
2) CC1(C)CNc2cc(NC(=O)c3cccnc3NCc3ccncc3)ccc21; 1.02
3) Cc1ccc(NC(=O)c2ccc(CN3CCN(C)CC3)cc2)cc1Nc1nc(-c2cccnc2)cs1; 1.01
4) C[C@]1(O)C[C@@H](c2nc(-c3ccc4ccc(-c5ccccc5)nc4c3)c3c(N)nccn32)C1; 1.01
5) C=CC(=O)N1CCC[C@@H](n2nc(-c3ccc(Oc4ccccc4)cc3)c3c(N)ncnc32)C1; 1.05

query: Which relative viability value is on record for COc1cccc2c1C(=O)c1c(O)c3c(c(O)c1C2=O)C[C@@](O)(C(=O)CO)C[C@@H]3O[C@H]1C[C@H](N)[C@H](O)[C@H](C)O1 [Doxorubicin Hydrochloride] ?
result: 0.649

query: Dear colleague, I am looking for the recorded relative viability of the following molecule: CC[C@H](Nc1ncnc2[nH]cnc12)c1nc2cccc(F)c2c(=O)n1-c1ccccc1
result: 0.972

====

System: RD-ES
Assay: relative viability vs DMSO control (72 h) (fraction); higher = more viable cells
Conditions: 1.111 µM
Could you please mark Condition met for values of relative viability below 0.9 and Condition not met for values at or above it?

1) Cc1ccc(NC(=O)c2ccc(CN3CCN(C)CC3)cc2)cc1Nc1nc(-c2cccnc2)cs1 [Masitinib]; Condition met
2) CCN1CCN(Cc2ccc(Nc3ncc(F)c(-c4cc(F)c5nc(C)n(C(C)C)c5c4)n3)nc2)CC1 [Abemaciclib]; Condition met
3) CC1(C)CNc2cc(NC(=O)c3cccnc3NCc3ccncc3)ccc21 [Motesanib]; Condition not met
4) Nc1cc(C(F)(F)F)c(-c2cc(N3CCOCC3)nc(N3CCOCC3)n2)cn1 [Buparlisib]; Condition met

query: Here's an entry: C[C@@H](c1ccc2nccn2c1)n1nnc2ncc(-c3cnn(C)c3)nc21 [Volitinib] . Is its relative viability below 0.9?
result: Condition not met

====

Tested on: HS729
Experiment: relative viability vs DMSO control (72 h) (fraction); higher = more viable cells
Conditions: 0.00051 µM
Reported relative viability by item:
Answer with a bare number; do not write a unit.

query: Can you share its relative viability? I mean this compound: Cc1cc(Nc2ncnc3ccc(NC4=NC(C)(C)CO4)cc23)ccc1Oc1ccn2ncnc2c1
result: 1.05

query: Sample Cn1cnc2c(F)c(Nc3ccc(Br)cc3F)c(C(=O)NOCCO)cc21 — what was its relative viability?
result: 1.05

query: Need relative viability, item CN1CCC(COc2cnc(-c3cccc(Cn4nc(-c5cccc(C#N)c5)ccc4=O)c3)nc2)CC1
result: 1

query: What value of relative viability has been reported for the following compound? C[C@@H](c1ccc2nccn2c1)n1nnc2ncc(-c3cnn(C)c3)nc21
result: 0.978

query: Could you tell me which relative viability is on file for CC(C)N1CCN(Cc2cnc(-c3cc(-c4cccc5[nH]ccc45)cc4[nH]ncc34)o2)CC1 ?
result: 0.984
